// provenance: paper PMC4926143

biological target: bovine heart mitochondrial complex II (Bos taurus, UniProt P31039+P35720+Q3T189+Q95123); construct: bovine heart mitochondrial complex II; purchased Cayman Chemical; host or cells: bovine heart mitochondria (native tissue preparation supplied in the kit); test: MitoCheck Complex II Activity Assay (succinate dehydrogenase activity); assay type: biochemical; conditions: bovine heart mitochondria; read-out: IC50, mitochondrial complex II
Sequence (P31039 44-665): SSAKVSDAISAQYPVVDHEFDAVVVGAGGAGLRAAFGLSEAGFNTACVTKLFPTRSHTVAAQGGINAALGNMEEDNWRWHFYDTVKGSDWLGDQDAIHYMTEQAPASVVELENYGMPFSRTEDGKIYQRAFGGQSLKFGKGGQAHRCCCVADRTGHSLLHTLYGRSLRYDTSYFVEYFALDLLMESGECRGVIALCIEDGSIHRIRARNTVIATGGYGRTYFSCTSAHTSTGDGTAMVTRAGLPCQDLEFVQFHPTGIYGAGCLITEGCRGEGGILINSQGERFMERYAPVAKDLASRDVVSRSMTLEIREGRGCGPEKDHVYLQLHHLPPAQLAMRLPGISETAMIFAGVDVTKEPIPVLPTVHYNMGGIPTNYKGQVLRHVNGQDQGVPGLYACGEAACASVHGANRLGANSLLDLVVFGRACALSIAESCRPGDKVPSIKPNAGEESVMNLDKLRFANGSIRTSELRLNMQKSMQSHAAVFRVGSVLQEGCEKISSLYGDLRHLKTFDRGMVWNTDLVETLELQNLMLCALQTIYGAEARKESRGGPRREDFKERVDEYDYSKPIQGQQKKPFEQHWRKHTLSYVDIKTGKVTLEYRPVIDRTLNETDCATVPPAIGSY
Sequence (Q3T189 29-280): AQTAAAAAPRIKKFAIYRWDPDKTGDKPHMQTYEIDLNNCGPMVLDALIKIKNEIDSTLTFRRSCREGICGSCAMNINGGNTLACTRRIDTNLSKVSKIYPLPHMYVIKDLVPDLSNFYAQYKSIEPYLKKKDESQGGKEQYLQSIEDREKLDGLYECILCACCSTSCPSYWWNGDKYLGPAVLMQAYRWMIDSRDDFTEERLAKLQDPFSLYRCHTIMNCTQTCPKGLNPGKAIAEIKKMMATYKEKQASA
Sequence (P35720 30-169): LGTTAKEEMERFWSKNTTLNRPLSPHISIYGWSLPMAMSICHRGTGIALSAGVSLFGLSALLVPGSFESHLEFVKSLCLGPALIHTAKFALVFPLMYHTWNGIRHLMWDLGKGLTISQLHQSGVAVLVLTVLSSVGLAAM
Sequence (Q95123 56-158): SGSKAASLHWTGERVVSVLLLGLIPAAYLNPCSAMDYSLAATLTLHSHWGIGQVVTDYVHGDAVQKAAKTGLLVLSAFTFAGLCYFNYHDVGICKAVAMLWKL
Here, each record is paired with measured IC50 data.
Could you give me the number in µM? Just the number is fine.

The examples below pair each entry with its known result.
[[record]]
molecule = "O=C(Nc1ccccc1-c1ccc(Cl)cc1)c1cccnc1Cl"
readout_type = "IC50"
observed_measurement = 19

[[record]]
molecule = "CCCCCCCOC(=O)c1cc(OC)c(O)c(OC)c1 [compound 7, heptyl syringate]"
readout_type = "IC50"
observed_measurement = 1300

[[record]]
molecule = "CCCCCOC(=O)c1cc(OC)c(O)c(OC)c1 [compound 5, pentyl syringate]"
readout_type = "IC50"
observed_measurement = 2800


[in] Data request, read-out IC50, for CCCCCCCCOC(=O)c1cc(O)c(O)c(O)c1 [compound 14, Octyl gallate]
[out] 290

[in] GET /values?readout=IC50&item= CCCCCCCCOC(=O)c1cc(OC)c(O)c(OC)c1 [compound 8, Octyl syringate]
[out] 340

[in] Name the recorded IC50 for CCCCOC(=O)c1cc(OC)c(O)c(OC)c1 [compound 4, butyl syringate] .
[out] 9700

[in] # IC50 lookup, item CCCCCCOC(=O)c1cc(OC)c(O)c(OC)c1 [compound 6, hexyl syringate]
[out] 1100

[in] # query: IC50 of entry `CCCCCCCCOC(=O)c1ccc(O)cc1`
[out] 160

====

molecular target: bovine heart mitochondrial complex II (Bos taurus, UniProt P31039+P35720+Q3T189+Q95123); construct: bovine heart mitochondrial complex II; purchased Cayman Chemical; host or cells: bovine heart mitochondria (native tissue preparation supplied in the kit); assay: MitoCheck Complex II Activity Assay (succinate dehydrogenase activity); type: biochemical; conditions: bovine heart mitochondria; highest concentration 20 mM; read-out: IC50, mitochondrial complex II (symbol)
pIC50: −log10 of the molar value.
Readout Type: pIC50

[in] Look up pIC50 for this molecule: CCOC(=O)c1cc(OC)c(O)c(OC)c1 [compound 2, Ethyl syringate]
[out] < 1.70
